The molecules listed here are annotated with their Spodoptera exigua Mortality (%).
- Test system: Spodoptera exigua
- RUN_DESCRIPTION: whole plant or invertebrate
- Assay type: in vivo
- SETUP_CONDITIONS: 500 ppm; 2nd-instar larvae, leaf immersion feeding

| MOLECULE | Spodoptera exigua Mortality (%) |
| --- | --- |
| COC(=O)CC1(C(=O)OC)Nc2c([S+]([O-])C(F)(F)F)c(C#N)nn2-c2c(C(F)(F)F)ccc(Cl)c21 (stereo not shown) | 100 |
| COC(=O)CC1(C(=O)OC)Nc2c(C#N)c(C(F)(F)F)nn2-c2cc(C(F)(F)F)cc(Cl)c21 (stereo not shown) | 100 |
| COC(=O)C1(CC(=O)OCC(F)(F)F)Nc2c([S+]([O-])C(F)(F)F)c(C#N)nn2-c2c(Cl)cc(C(F)(F)F)cc21 (stereo not shown) | 100 |
| N#Cc1nn2c(c1[S+]([O-])C(F)(F)F)NC(C(=O)C(F)(F)F)c1cc(C(F)(F)F)cc(Cl)c1-2 (stereo not shown) | 90 |
| N#Cc1nn2c(c1[S+]([O-])C(F)(F)F)NC(Cc1ccccc1)(C(=O)C(F)(F)F)c1cc(C(F)(F)F)cc(Cl)c1-2 (stereo not shown) | 100 |
| CC(=O)C1(CC(=O)C(F)(F)F)Nc2c([S+]([O-])C(F)(F)F)c(C#N)nn2-c2cc(C(F)(F)F)cc(Cl)c21 (stereo not shown) | 89 |
| N#Cc1nn2c(c1[S+]([O-])C(F)(F)F)NC(CC(=O)C(F)(F)F)(C(=O)C(F)(F)F)c1c(Cl)cncc1-2 (stereo not shown) | 100 |

###

- Test system: Plutella xylostella
- RUN_DESCRIPTION: whole plant or invertebrate
- Assay type: in vivo
- SETUP_CONDITIONS: 500 ppm; 2nd-instar larvae, leaf immersion feeding
The compounds listed here are annotated with their Plutella xylostella Mortality (%).

| COMPOUND | Plutella xylostella Mortality (%) |
| --- | --- |
| COC(=O)CC1(C(=O)OC)Nc2c(OC(F)(F)F)c(C#N)nn2-c2c(Cl)cc(C(F)(F)F)cc21 (centres unmarked) | 100 |
| COC(=O)C1(CBr)Nc2c([S+]([O-])C(F)(F)F)c(C#N)nn2-c2c(Cl)cc(C(F)(F)F)cc21 (centres unmarked) | 90 |
| O=C(C1Nc2c([S+]([O-])C(F)(F)F)c(C(F)(F)F)nn2-c2cncc(Cl)c21)C(F)(F)F (centres unmarked) | 100 |
| COC(=O)CC1(C(=O)OC)Nc2c([S+]([O-])C(F)(F)F)c(C#N)nn2-c2cc(OC(F)(F)F)cc(Cl)c21 (centres unmarked) | 99 |
| CCOC(=O)C1(CC(=O)OC)Nc2c([S+]([O-])C(F)(F)F)c(C#N)nn2-c2cncc(Cl)c21 (centres unmarked) | 96 |
| COC(=O)C1Nc2c([S+]([O-])C(F)(F)F)c(C(F)(F)F)nn2-c2cncc(Cl)c21 (centres unmarked) | 95 |
| COC(=O)C1(CC#N)Nc2c([S+]([O-])C(F)(F)F)c(C#N)nn2-c2cncc(Cl)c21 (centres unmarked) | 100 |
| COC(=O)CC1(C(=O)C(F)(F)F)Nc2c([S+]([O-])C(F)(F)F)c(C#N)nn2-c2cncc(Cl)c21 (centres unmarked) | 100 |
